Assay: Fluidity test (angle of repose)
Format: physicochemical
Conditions: measurement 3
Each entry below carries its recorded angle of repose.
ASSAY_METRIC: angle of repose (°)

* Cc1cc(Nc2cc(C)[nH]n2)nc(N2CC3CCC(C2)N3C(=O)c2ccc(-n3cc(F)cn3)nn2)n1 [crystal form D] | 33.3
* Cc1cc(Nc2cc(C)[nH]n2)nc(N2CC3CCC(C2)N3C(=O)c2ccc(-n3cc(F)cn3)nn2)n1 [crystal form A] | 32.2
* Cc1cc(Nc2cc(C)[nH]n2)nc(N2CC3CCC(C2)N3C(=O)c2ccc(-n3cc(F)cn3)nn2)n1 [crystal form B] | 34.2
* Cc1cc(Nc2cc(C)[nH]n2)nc(N2CC3CCC(C2)N3C(=O)c2ccc(-n3cc(F)cn3)nn2)n1 [amorphous form, reference compound] | 43.4
* Cc1cc(Nc2cc(C)[nH]n2)nc(N2CC3CCC(C2)N3C(=O)c2ccc(-n3cc(F)cn3)nn2)n1 [crystal form E] | 34.8

====

Experiment: Stability test (purity and XRPD pattern after 30 days storage)
Type: physicochemical
Conditions: day 30 at 60° C.
Reported purity is given for each of the following compounds.
ASSAY_METRIC: purity

- Cc1cc(Nc2cc(C)[nH]n2)nc(N2CC3CCC(C2)N3C(=O)c2ccc(-n3cc(F)cn3)nn2)n1 [crystal form B]: 99.62
- Cc1cc(Nc2cc(C)[nH]n2)nc(N2CC3CCC(C2)N3C(=O)c2ccc(-n3cc(F)cn3)nn2)n1 [crystal form A]: 99.77
- Cc1cc(Nc2cc(C)[nH]n2)nc(N2CC3CCC(C2)N3C(=O)c2ccc(-n3cc(F)cn3)nn2)n1 [crystal form E]: 99.65
- Cc1cc(Nc2cc(C)[nH]n2)nc(N2CC3CCC(C2)N3C(=O)c2ccc(-n3cc(F)cn3)nn2)n1 [crystal form D]: 99.33
- Cc1cc(Nc2cc(C)[nH]n2)nc(N2CC3CCC(C2)N3C(=O)c2ccc(-n3cc(F)cn3)nn2)n1 [crystal form C]: 99.38

====

Assay: Stability test (purity and XRPD pattern after 30 days storage)
Type: physicochemical
Settings: day 30 under 75% RH
Each entry below lists one item and its recorded purity value.
ASSAY_METRIC: purity

• Cc1cc(Nc2cc(C)[nH]n2)nc(N2CC3CCC(C2)N3C(=O)c2ccc(-n3cc(F)cn3)nn2)n1 [amorphous form, reference compound] = 95.94
• Cc1cc(Nc2cc(C)[nH]n2)nc(N2CC3CCC(C2)N3C(=O)c2ccc(-n3cc(F)cn3)nn2)n1 [crystal form D] = 99.35
• Cc1cc(Nc2cc(C)[nH]n2)nc(N2CC3CCC(C2)N3C(=O)c2ccc(-n3cc(F)cn3)nn2)n1 [crystal form B] = 99.52
• Cc1cc(Nc2cc(C)[nH]n2)nc(N2CC3CCC(C2)N3C(=O)c2ccc(-n3cc(F)cn3)nn2)n1 [crystal form E] = 99.60
• Cc1cc(Nc2cc(C)[nH]n2)nc(N2CC3CCC(C2)N3C(=O)c2ccc(-n3cc(F)cn3)nn2)n1 [crystal form C] = 99.45
• Cc1cc(Nc2cc(C)[nH]n2)nc(N2CC3CCC(C2)N3C(=O)c2ccc(-n3cc(F)cn3)nn2)n1 [crystal form A] = 99.67

====

angle of repose values by entry
Assay: Fluidity test (angle of repose)
Format: physicochemical
Conditions: measurement 2
ASSAY_METRIC: angle of repose (°)

- Cc1cc(Nc2cc(C)[nH]n2)nc(N2CC3CCC(C2)N3C(=O)c2ccc(-n3cc(F)cn3)nn2)n1 [crystal form D]: 33.8
- Cc1cc(Nc2cc(C)[nH]n2)nc(N2CC3CCC(C2)N3C(=O)c2ccc(-n3cc(F)cn3)nn2)n1 [amorphous form, reference compound]: 44.3
- Cc1cc(Nc2cc(C)[nH]n2)nc(N2CC3CCC(C2)N3C(=O)c2ccc(-n3cc(F)cn3)nn2)n1 [crystal form A]: 31.9
- Cc1cc(Nc2cc(C)[nH]n2)nc(N2CC3CCC(C2)N3C(=O)c2ccc(-n3cc(F)cn3)nn2)n1 [crystal form E]: 35.1
- Cc1cc(Nc2cc(C)[nH]n2)nc(N2CC3CCC(C2)N3C(=O)c2ccc(-n3cc(F)cn3)nn2)n1 [crystal form B]: 34.1
- Cc1cc(Nc2cc(C)[nH]n2)nc(N2CC3CCC(C2)N3C(=O)c2ccc(-n3cc(F)cn3)nn2)n1 [crystal form C]: 33.9

Ref: patent US20260258020A1
